# procedure details: Microsomal stability (liver microsomal assay, mixed cofactors); predicted hepatic clearance
# Assay type: in vitro ADME
# condition notes: liver microsomes 1.0 mg protein/mL (+UDPGA +NADPH), 1 μM analyte, 37° C.; scaled with human liver weight and hepatic blood flow 1.3 L/hr/kg
measured quantity: Predicted Hepatic Clearance (Pred. Cl.) (mL/min/kg)
Give bare numbers, in mL/min/kg.

Solved entries:
compound: N#Cc1ccc(C2Oc3cccc(-c4cc(F)c(Cc5nc6ccc(C(=O)O)cc6n5C[C@@H]5CCO5)c(F)c4)c3O2)c(F)c1 (single isomer, unassigned) [Example 41]
unit label: mL/min/kg
Predicted Hepatic Clearance (Pred. Cl.): 2.83
//
compound: COCCn1c(Cc2c(F)cc(-c3cccc4c3OC3(c5ccc(Cl)cc5)CCC(=O)N43)cc2F)nc2ccc(C(=O)O)cc21 (stereo not drawn) [Example 17]
unit label: mL/min/kg
Predicted Hepatic Clearance (Pred. Cl.): 7.33
//
compound: COCCn1c(Cc2ccc(-c3cccc4c3OC(c3ccc(C#N)cc3F)O4)cc2F)nc2ccc(C(=O)O)cc21 (single isomer, unassigned) [Example 33]
unit label: mL/min/kg
Predicted Hepatic Clearance (Pred. Cl.): 2.67
//
compound: CC1(c2ccc(Cl)cc2F)Oc2cccc(-c3cc(F)c(Cc4nc5ccc(C(=O)O)cc5n4C[C@@H]4CCO4)c(F)c3F)c2O1 (stereo partly drawn) [Example 20]
unit label: mL/min/kg
Predicted Hepatic Clearance (Pred. Cl.): 2.5

Shifting focus to the compound that follows.
Input: Consider the compound shown here: COCCn1c(Cc2c(F)cc(-c3cccc4c3OC(C)(c3ccc(C#N)cc3F)O4)cc2F)nc2ccc(C(=O)O)cc21 (stereo not drawn) [Example 89] What is its recorded Predicted Hepatic Clearance (Pred. Cl.)?
Output: 6.17

* * *

# tested system: GLP-1R (Homo sapiens (Human))
# Sequence (P43220 24-463): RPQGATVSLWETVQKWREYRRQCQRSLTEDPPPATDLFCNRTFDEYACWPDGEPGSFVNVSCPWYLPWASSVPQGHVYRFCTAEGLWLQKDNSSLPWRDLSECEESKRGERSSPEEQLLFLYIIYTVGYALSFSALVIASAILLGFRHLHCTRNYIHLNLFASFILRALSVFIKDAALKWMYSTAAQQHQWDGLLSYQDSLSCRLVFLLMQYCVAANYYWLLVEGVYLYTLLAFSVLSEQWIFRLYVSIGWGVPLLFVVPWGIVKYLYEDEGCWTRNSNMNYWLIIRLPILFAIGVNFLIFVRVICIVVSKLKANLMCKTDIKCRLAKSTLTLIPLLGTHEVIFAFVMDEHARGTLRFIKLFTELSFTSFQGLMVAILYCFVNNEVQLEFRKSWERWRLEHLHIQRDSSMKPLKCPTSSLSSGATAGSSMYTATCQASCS
# procedure details: GLP-1R activation: cAMP increase in CHO cells stably expressing GLP-1R
# Format: cell-based
# condition notes: cAMP increase, 10 point dose response, 30 minutes incubation at 37° C., read-out: EC50
pEC50: −log10 of the molar value.
Outcome: Y for pEC50 of at least 7; N for anything lower.

Before answering, review these 5 worked examples.
compound: COCCn1c(Cc2c(F)cc(-c3cccc4c3OC(c3ccc(C#N)cc3F)O4)cc2F)nc2ccc(C(=O)O)cc21 (single isomer, unassigned) [Example 38]
tested system: GLP-1R (Homo sapiens (Human))
assigned label: Y
//
compound: COCCn1c(Cc2cc(F)c(-c3cccc4c3OC(C)(c3ccc(C#N)cc3F)O4)cc2F)nc2ccc(C(=O)O)cc21 (stereo not drawn) [Example 81]
tested system: GLP-1R (Homo sapiens (Human))
assigned label: Y
//
compound: COCCn1c(Cc2ccc(-c3cccc4c3OC(c3ccc(Cl)cc3F)C4)cc2F)nc2ccc(C(=O)O)cc21 (stereo not drawn) [Example 79]
tested system: GLP-1R (Homo sapiens (Human))
assigned label: N
//
compound: COCCn1c(Cc2c(F)cc(-c3cccc4c3OC(C)(c3ccc(C#N)cc3F)O4)c(F)c2F)nc2ccc(C(=O)O)cc21 (single isomer, unassigned) [Example 96]
tested system: GLP-1R (Homo sapiens (Human))
assigned label: Y
//
compound: COCCn1c(Cc2c(F)cc(-c3cccc4c3OC(C)(c3ccc(C(F)(F)F)cc3F)O4)cc2F)nc2ccc(C(=O)O)cc21 (stereo not drawn) [Example 58]
tested system: GLP-1R (Homo sapiens (Human))
assigned label: Y

Input: Entry O=C(O)c1ccc2nc(Cc3c(F)cc(-c4cccc5c4C(=O)N(c4ccc(Cl)cc4F)C5)cc3F)n(C[C@@H]3CCO3)c2c1 [Example 72] : is its pEC50 no less than 7?
Output: N
